B1: Ribonuclease HII, O74035 (parent)
chain: MKIAGIDEAGRGPVIGPMVIAAVVVDENSLPKLEELKVRDSKKLTPKRREKLFNEILGVLDDYVILELPPDVIGSREGTLNEFEVENFAKALNSLKVKPDVIYADAADVDEERFARELGERLNFEAEVVAKHKADDIFPVVSAASILAKVTRDRAVEKLKEEYGEIGSGYPSDPRTRAFLENYYREHGEFPPIVRKGWKTLKKIAEKVESEKKAEERQATLDRYFRKV

- Variants of: B1
- COND: Thermococcus kodakarensis (strain ATCC BAA-918 / JCM 12380 / KOD1); pH 9; 50 °C; GdnHCl; CD; Tris-HCl 20 mM; reversible: Yes; structure 1IO2; whole UniProt chain shown
Outcome label depends on denaturant m value relative to 5 kcal/mol/M: at/above gives Satisfied, below gives Not satisfied.

variant_designation=E8Q label="Not satisfied"
variant_designation=D135A label="Not satisfied"
variant_designation=E8A label="Not satisfied"
variant_designation=D105A label=Satisfied

Moving on to the next variant.
# bool: denaturant m value of D7N >= 5 kcal/mol/M
Not satisfied
